- system: human activated kallikrein enzyme (Homo sapiens, UniProt P03952)
- Sequence (P03952 391-638 limits assumed): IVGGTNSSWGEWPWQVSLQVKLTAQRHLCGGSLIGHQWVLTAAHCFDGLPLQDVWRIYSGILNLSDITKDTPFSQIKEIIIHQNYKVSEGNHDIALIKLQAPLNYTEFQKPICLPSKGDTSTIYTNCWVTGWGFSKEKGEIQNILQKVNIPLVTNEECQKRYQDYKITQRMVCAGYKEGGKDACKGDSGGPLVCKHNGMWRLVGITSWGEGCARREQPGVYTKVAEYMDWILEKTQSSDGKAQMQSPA
- Sequence (P03952 20-390 partner limits assumed): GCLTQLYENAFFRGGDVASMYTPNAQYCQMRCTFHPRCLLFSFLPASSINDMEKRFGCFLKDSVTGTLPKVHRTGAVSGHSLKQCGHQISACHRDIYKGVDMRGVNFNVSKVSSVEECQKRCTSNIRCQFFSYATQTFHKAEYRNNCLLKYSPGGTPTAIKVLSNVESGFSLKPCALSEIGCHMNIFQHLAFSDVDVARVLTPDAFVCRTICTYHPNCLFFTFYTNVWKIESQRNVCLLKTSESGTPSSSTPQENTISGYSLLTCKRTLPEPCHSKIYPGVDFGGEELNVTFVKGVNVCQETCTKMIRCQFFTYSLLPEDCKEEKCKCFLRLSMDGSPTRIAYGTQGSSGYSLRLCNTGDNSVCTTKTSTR
- protocol: Inhibition of human activated plasma kallikrein, fluorogenic PFR-AMC substrate, 500 pM enzyme format
- Type: biochemical
- test-conditions: 500 pM activated kallikrein; 300 μM PFR-AMC; 30 min preincubation; 10 min room temperature; pH 7.5; read-out: Primary Dose Response Assay: Average EC50
pEC50: −log10 of the molar value. Counter-ions that a name gives are not always drawn.
value-kind: pEC50

compound=Cc1cc2c(N)nccc2c(C)c1CNC(=O)c1cnn(Cc2cc3cc(Cl)ccc3s2)c1 value_kind=pEC50 reported_measurement="> 9.00"
compound=Cc1ccc2ccc(Cn3cc(C(=O)NCc4c(C)cc5c(N)nccc5c4C)cn3)cc2c1 value_kind=pEC50 reported_measurement="8.00 to 9.00"
compound=CC(=O)Nc1nccc2cc(C)c(CNc3cc(NCc4ccc(Cn5ccccc5=O)cc4)ncn3)c(C)c12 value_kind=pEC50 reported_measurement="8.00 to 9.00"
compound=Cc1cc2c(N)nccc2c(C)c1CNc1nccc2nn(Cc3cn4cc(C5CC5)cnc4n3)cc12 value_kind=pEC50 reported_measurement="> 9.00"

Entry Cc1cc2c(N)nccc2c(C)c1CNc1cc(OCc2nc3ccc(C4CC4)cn3n2)nc(C(=O)O)n1 , pEC50 reported as 8.00 to 9.00

Entry Cc1cc2c(N)nccc2c(C)c1CNC(=O)c1cnn(Cc2ccc(CC(=O)N(C)C)c(C(F)(F)F)c2)c1 , pEC50 reported as > 9.00

Entry Cc1ccc2nc(Cn3cc(C(=O)NCc4c(C)cc5c(NC(=O)OCC(C)C)nccc5c4C)cn3)cn2c1 , pEC50 reported as 7.00 to 8.00

Entry Cc1cc2c(N)nccc2c(C)c1CNC(=O)c1cn(Cc2ccc(CC(=O)N3CC4CC4C3)cc2)nc1C(F)(F)F (stereo not drawn) , pEC50 reported as > 9.00

Entry Cc1cc2c(N)nccc2c(C)c1CNc1cc(OCc2cc3cc(C4CC4)ccn3n2)ncn1 , pEC50 reported as 8.00 to 9.00

Entry Cc1cc2c(N)nccc2c(C)c1CNc1cc(OCc2ccc(Cc3ccn(C)n3)cc2)ncn1 [Example 297, formic acid salt] , pEC50 reported as 8.00 to 9.00

Entry Cc1cc2c(N)nccc2c(C)c1CNC(=O)c1cnn(Cc2ccc3ncc(Cl)cc3c2)c1 , pEC50 reported as > 9.00

Entry Cc1ccc2ccc(Cn3cc(C(=O)NCc4c(C)cc5c(N)nccc5c4C)cn3)cc2n1 , pEC50 reported as > 9.00
